Source listed as PubChem BioAssay (Tox21).

test: qHTS assay to identify small molecule antagonists of the androgen receptor (AR) signaling pathway using the MDA cell line in the presence of 0.5 nM R1881 - cell viability counter screen (AID 1259242); details: MDA-kb2 viability, CellTiter-Fluor protease fluorescence, 16 h; series mostly up to 92.4 µM; note: % is set by controls: 0 for no effect and ±100 for the full control effect; nearly all actives have a fitted effect of over 45% in size
Records with an inconclusive call do not appear. Activity calls are given as the source filed them. Calls come from the whole dose curve; as a rule, active = well fitted cell-killing curve with a large enough effect in the repeat runs; inconclusive = weak or mixed curves, or effect the other way; inactive = flat fitted curve, though single readings scatter.
propertyName: viability change, negative = cytotoxic

Record excerpt, results attached:
{"molecule": "CCO[Si](CC)(OCC)OCC", "propertyName": "viability change, negative = cytotoxic", "testValue": "inactive"}
{"molecule": "CCCCCCCCCOC(=O)CCCCC(=O)OCCCCCCC", "propertyName": "viability change, negative = cytotoxic", "testValue": "inactive"}
{"molecule": "N[C@@H](CSCCCO)C(=O)O", "propertyName": "viability change, negative = cytotoxic", "testValue": "2.53% [at 19 µM] (inactive)"}
{"molecule": "O=C1c2ccccc2C(=O)c2cc(Cl)ccc21", "propertyName": "viability change, negative = cytotoxic", "testValue": "2.58% [at 8.39 µM] (inactive)"}
{"molecule": "CC(=O)c1cc(C)oc1C", "propertyName": "viability change, negative = cytotoxic", "testValue": "inactive"}
{"molecule": "C[Si]1(C)O[Si](C)(C)O[Si](C)(C)O[Si](C)(C)O[Si](C)(C)O1", "propertyName": "viability change, negative = cytotoxic", "testValue": "inactive"}

Query string: # viability change, negative = cytotoxic lookup, item C=CCCCC
Result string: inactive

Query string: # viability change, negative = cytotoxic lookup, item CN1CCOC(c2ccccc2)c2ccccc2C1 (centres undefined)
Result string: inactive

Query string: # viability change, negative = cytotoxic lookup, item CC(C)=CCC/C(C)=C/COC=O
Result string: inactive

---

test: qHTS assay to identify small molecule agonists of the progesterone receptor (PR) signaling pathway - cell viability counter screen (AID 1346799); conditions: PR-UAS-bla HEK293T viability, CellTiter-Glo luminescence, 16 h; series mostly up to 92.4 µM; note: % is set by controls: 0 for no effect and ±100 for the full control effect; nearly all actives have a fitted effect of over 45% in size
Records with an inconclusive call do not appear. Active and inactive are the calls of the source. Calls come from the whole dose curve.
propertyName: activity change, negative = cytotoxicity

{"compound": "[O]=[Mo](=[O])=[O]", "activity change, negative = cytotoxicity": "7.88% [at 19 µM] (inactive)"}
{"compound": "COC(=O)CCCCC(CCSS/C(CCO)=C(\\C)N(C=O)Cc1cnc(C)nc1N)SC(C)=O (centres undefined)", "activity change, negative = cytotoxicity": "inactive"}
{"compound": "O=C(NCN1CCOCC1)c1cnccn1", "activity change, negative = cytotoxicity": "inactive"}
{"compound": "OCC(O)CN1CCN(c2ccccc2)CC1 (centres undefined)", "activity change, negative = cytotoxicity": "inactive"}
{"compound": "O=C1c2ccccc2C(=O)c2cc(Cl)ccc21", "activity change, negative = cytotoxicity": "13.3% [at 8.39 µM] (inactive)"}

Query string: # activity change, negative = cytotoxicity lookup, item CC(Oc1cc(Cl)ccc1Cl)C(=O)O (centres undefined)
Result string: inactive

Query string: # activity change, negative = cytotoxicity lookup, item CC(C)CCOC(=O)c1ccccc1
Result string: inactive

Query string: # activity change, negative = cytotoxicity lookup, item CC(CO)(CO)CO
Result string: inactive

Query string: # activity change, negative = cytotoxicity lookup, item CC(C)OC(=O)CCC(=O)OC(C)C
Result string: inactive

Query string: # activity change, negative = cytotoxicity lookup, item CC1=NN(c2ccc(S(=O)(=O)O)cc2)C(=O)C1
Result string: inactive

Query string: # activity change, negative = cytotoxicity lookup, item C=C(C)C1CC=C(C)C(=O)C1 (centres undefined)
Result string: inactive

Query string: # activity change, negative = cytotoxicity lookup, item C/C=C(\C)C(C)=O
Result string: inactive

Query string: # activity change, negative = cytotoxicity lookup, item CC(=O)O[Si](C)(OC(C)=O)OC(C)=O
Result string: inactive

Query string: # activity change, negative = cytotoxicity lookup, item N[C@@H](CSCCCO)C(=O)O
Result string: 4.73% [at 19 µM] (inactive)

---

target: Cytochrome P450 2D6 (Homo sapiens) (UniProt P10635); experiment: Cytochrome P450 Family 2 Subfamily D Member 6 (CYP2D6) small molecule antagonists: luciferase reporter qHTS assay (AID 1671196); conditions: P450-Glo CYP2D6 enzyme assay, luciferin luminescence, 1 h; series mostly up to 115 µM; note: nearly all actives have a fitted effect of over 50% in size
Sequence (P10635 whole entry, looked up): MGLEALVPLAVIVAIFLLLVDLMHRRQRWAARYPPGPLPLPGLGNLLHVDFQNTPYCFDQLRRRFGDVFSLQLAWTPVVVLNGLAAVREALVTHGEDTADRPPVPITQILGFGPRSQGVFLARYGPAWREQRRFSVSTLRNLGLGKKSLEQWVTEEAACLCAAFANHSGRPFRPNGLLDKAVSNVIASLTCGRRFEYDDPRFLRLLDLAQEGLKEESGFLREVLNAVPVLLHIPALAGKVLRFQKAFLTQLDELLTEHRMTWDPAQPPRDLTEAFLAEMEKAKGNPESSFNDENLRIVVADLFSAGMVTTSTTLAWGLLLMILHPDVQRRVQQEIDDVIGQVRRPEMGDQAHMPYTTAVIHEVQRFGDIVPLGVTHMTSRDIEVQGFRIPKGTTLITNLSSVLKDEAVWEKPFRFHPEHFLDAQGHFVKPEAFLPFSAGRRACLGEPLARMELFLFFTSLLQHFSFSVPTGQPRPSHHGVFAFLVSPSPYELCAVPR
Results filed as inconclusive are left out. The source made the active and inactive calls. Calls follow the shape of the dose curve; as a rule, active = well fitted inhibition curve with a large enough effect in the repeat runs; inconclusive = weak or mixed curves; inactive = no such curve, though single readings can be large or run the other way.
// allowed return values: active, inactive

Worked cases, answers included:
{"compound": "C/C(=C1\\CCOC(=O)S1)N(C=O)Cc1cnc(C)nc1N", "qualitativeLabel": "active"}
{"compound": "c1ccc(B(c2ccccc2)c2ccccc2)cc1", "qualitativeLabel": "active"}
{"compound": "O=C(CN1CCNCC1)NC1CCCCC1", "qualitativeLabel": "inactive"}
{"compound": "OCCN1CCOCC1", "qualitativeLabel": "inactive"}
{"compound": "CCNC(=O)NCc1cccc(Cl)c1", "qualitativeLabel": "inactive"}
{"compound": "CCCCOC(=O)[C@H](C)O", "qualitativeLabel": "inactive"}
{"compound": "CN(C)CCCO[C@@H]1[C@H]2OC(C)(C)O[C@H]2O[C@@H]1C(O)CO (some centres not stated)", "qualitativeLabel": "inactive"}
{"compound": "OC1(c2ccc(Cl)cc2)CCNCC1", "qualitativeLabel": "active"}
{"compound": "CCCCSCCCC", "qualitativeLabel": "inactive"}
{"compound": "Cc1c(C(=O)c2c[nH]n(C)c2=O)ccc(S(C)(=O)=O)c1C1=NOCC1", "qualitativeLabel": "inactive"}

Query string: Dear colleague, could you share the recorded outcome for C[C@]12CCC(=O)C=C1CC[C@H]1[C@@H]3CC[C@](O)(C(=O)CO)[C@@]3(C)C[C@H](O)[C@@]12F when you have a moment?
Result string: inactive

Query string: Dear colleague, could you share the recorded outcome for CC1=NN(c2ccc(S(=O)(=O)O)cc2)C(=O)C1 when you have a moment?
Result string: inactive

---

experiment: qHTS assay to identify small molecule agonists of H2AX - cell viability counter screen (AID 1224847); details: CHO-K1 viability, CellTiter-Glo luminescence, 3 h; series mostly up to 154 µM;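 note: wild-type CHO-K1 cells; top concentration of the series differs between compounds; % is set by controls: 0 for no effect and ±100 for the full control effect; nearly all actives have a fitted effect of over 30% in size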
Results filed as inconclusive are left out. Activity calls are given as the source filed them. Calls follow the shape of the full dose curve.
propertyName: activity change, negative = cytotoxicity

Record excerpt, results attached:
{"molecule": "COC(=O)c1cccc(Cl)c1", "activity change, negative = cytotoxicity": "inactive"}
{"molecule": "O=C(CCCCC(=O)Nc1c(I)cc(I)c(C(=O)O)c1I)Nc1c(I)cc(I)c(C(=O)O)c1I", "activity change, negative = cytotoxicity": "inactive"}
{"molecule": "C=C(C)[C@@H]1CC=C(C)C(=O)C1", "activity change, negative = cytotoxicity": "inactive"}
{"molecule": "CC(C)(C)NC[C@H](O)COc1cccc2c1CCCC2=O", "activity change, negative = cytotoxicity": "inactive"}

Query string: # activity change, negative = cytotoxicity lookup, item CC(=O)O[C@H]1C[C@@H]2CC[C@@]1(C)C2(C)C
Result string: inactive

Query string: # activity change, negative = cytotoxicity lookup, item O=C1OCCO1
Result string: inactive

Query string: # activity change, negative = cytotoxicity lookup, item CC1OCCC1=O (stereo not drawn)
Result string: inactive

Query string: # activity change, negative = cytotoxicity lookup, item CCCCCCCCCCCCCCCCCCOCCO
Result string: -6.52% [at 31.6 µM] (inactive)

Query string: # activity change, negative = cytotoxicity lookup, item CC1=C(C(=O)O)N2C(=O)[C@@H](NC(=O)[C@H](N)C3=CCC=CC3)[C@H]2SC1
Result string: inactive

---

Target: Cytochrome P450 3A4 (Homo sapiens) (UniProt P08684)
Sequence (P08684 whole entry, looked up): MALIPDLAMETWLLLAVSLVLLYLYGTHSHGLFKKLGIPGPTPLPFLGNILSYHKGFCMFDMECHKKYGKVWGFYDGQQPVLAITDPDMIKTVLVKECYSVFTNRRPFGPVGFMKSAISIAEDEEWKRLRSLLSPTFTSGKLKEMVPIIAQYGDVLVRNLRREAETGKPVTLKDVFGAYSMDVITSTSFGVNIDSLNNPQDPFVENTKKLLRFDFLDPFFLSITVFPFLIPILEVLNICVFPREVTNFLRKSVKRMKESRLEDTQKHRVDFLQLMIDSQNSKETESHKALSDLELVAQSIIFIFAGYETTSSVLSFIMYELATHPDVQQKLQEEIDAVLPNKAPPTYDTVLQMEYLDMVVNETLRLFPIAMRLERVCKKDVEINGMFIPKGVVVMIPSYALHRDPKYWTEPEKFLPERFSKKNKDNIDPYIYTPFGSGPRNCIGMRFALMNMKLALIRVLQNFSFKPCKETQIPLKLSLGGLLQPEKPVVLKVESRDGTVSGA
Assay: Cytochrome P450 Family 3 Subfamily A Member 4 (CYP3A4) small molecule antagonists: luciferase reporter qHTS assay (AID 1671201); note: nearly all actives have a fitted effect of over 50% in size
Details: P450-Glo CYP3A4 enzyme, luciferin luminescence, 1 h; series mostly up to 115 µM
Source text: National Center for Advancing Translational Sciences [NCATS] U.S. Environmental Protection Agency [EPA] National Institutes of Environmental Health Sciences [NIEHS] National Toxicology Program [NTP] U.S. Food and Drug Administration [FDA] Cytochrome P450 (CYP) enzymes are membrane-bound hemeproteins that play a key role in metabolism of drugs and xenobiotics. […] The luciferin products formed are detected with a luciferin detection reagent, and the amount of light produced is proportional to CYP activity. […]
Results filed as inconclusive are left out. The source made the active and inactive calls. Calls follow the shape of the dose curve; as a rule, active = well fitted inhibition curve with a large enough effect in the repeat runs; inconclusive = weak or mixed curves; inactive = no such curve, though single readings can be large or run the other way.
// allowed return values: T for active, F for inactive

Worked cases, answers included:
{"compound": "Cc1ccc(C(C)NC(=O)[C@@H](NC(=O)OC(C)C)C(C)C)cc1 (stereo partly drawn)", "qualitativeLabel": "T"}
{"compound": "O=C(O)CCCCCC(=O)O", "qualitativeLabel": "F"}
{"compound": "Cc1c(NC(=O)c2cccnc2)c(=O)n(-c2ccccc2)n1C", "qualitativeLabel": "F"}

Query string: Dear colleague, could you share the recorded outcome for OCCN1CCOCC1 when you have a moment?
Result string: F

Query string: Dear colleague, could you share the recorded outcome for O/N=C/C=N/O when you have a moment?
Result string: F
